- protocol-notes: Solubility of processed ginseng extract (ginsenosides Rg3 and Rh2 by HPLC) in solvents and dissolution media
- Type: physicochemical
- condition-details: Water; 500 mg processed ginseng extract in 2 g solvent, 50 rpm, 37°C, 18 hours
endpoint-name: solubility (mg/g)
All answers are understood in mg/g, so give the number only.

Ask | Query: solubility; subject: CC(C)=CCC[C@](C)(O)[C@H]1CC[C@]2(C)[C@@H]1[C@H](O)C[C@@H]1[C@@]3(C)CC[C@H](O[C@@H]4O[C@H](CO)[C@@H](O)[C@H](O)[C@H]4O[C@@H]4O[C@H](CO)[C@@H](O)[C@H](O)[C@H]4O)C(C)(C)[C@@H]3CC[C@]12C [Ginsenoside Rg3 S-form, Ginsenoside Rg3]
Reply | 0.21

Ask | Another molecule to check: CC(C)=CCC[C@](C)(O)[C@H]1CC[C@]2(C)[C@@H]1[C@H](O)C[C@@H]1[C@@]3(C)CC[C@H](O[C@@H]4O[C@H](CO)[C@@H](O)[C@H](O)[C@H]4O[C@@H]4O[C@H](CO)[C@@H](O)[C@H](O)[C@H]4O)C(C)(C)[C@@H]3CC[C@]12C [Ginsenoside Rg3 R-form, Ginsenoside Rg3]
Reply | 0.05

Ask | Another molecule to check: CC(C)=CCC[C@](C)(O)[C@H]1CC[C@]2(C)[C@@H]1[C@H](O)C[C@@H]1[C@@]3(C)CC[C@H](O[C@@H]4O[C@H](CO)[C@@H](O)[C@H](O)[C@H]4O)C(C)(C)[C@@H]3CC[C@]12C [Ginsenoside Rh2 R-form, Ginsenoside Rh2]
Reply | 0.00

Ask | Another molecule to check: CC(C)=CCC[C@](C)(O)[C@H]1CC[C@]2(C)[C@@H]1[C@H](O)C[C@@H]1[C@@]3(C)CC[C@H](O[C@@H]4O[C@H](CO)[C@@H](O)[C@H](O)[C@H]4O)C(C)(C)[C@@H]3CC[C@]12C [Ginsenoside Rh2 S-form, Ginsenoside Rh2]
Reply | 0.10
